target: Ornithine decarboxylase antizyme 1 (Homo sapiens); test: Induction of OAZ1 in human DU145 cells assessed as reduction in intracellular ODC activity at 10 uM after 6 hrs relative to control; parameters: scale not given: the % may be the effect or the level left
Quantity Name: Activity (%)
Give bare numbers, in %.

Example compounds with recorded Activity:
compound="CC(CN)CNCCCCNCC(C)CN (centres undefined)" study_target="Ornithine decarboxylase antizyme 1 (Homo sapiens)" result=80
compound="CC(N)CCNCCCCNCCC(C)N (centres undefined)" study_target="Ornithine decarboxylase antizyme 1 (Homo sapiens)" result=80
compound=NCCCNCCCCNCCCN study_target="Ornithine decarboxylase antizyme 1 (Homo sapiens)" result=80

Below: the item to evaluate.
Please look up its Activity: CC(CCN)NCCCCNC(C)CCN (centres undefined)
5

FYI, the data here is from ChEMBL document CHEMBL4321859.
